Below: a set of entries, each annotated with reported IC50.
- assayed-target: Fructose-1,6-bisphosphatase 1 (Mus musculus)
- assay-details: Inhibition of fructose-1,6-bisphosphatase in mouse liver homogenates by colorimetric phosphate assay
- Format: tissue-based
Entry rule: numbers only, all in µM.

In the examples that follow, each entry is paired with its recorded IC50.
{"compound": "O=S(=O)(c1ccccc1)n1ccc2ccccc21", "assayed-target": "Fructose-1,6-bisphosphatase 1 (Mus musculus)", "IC50, µM": 119}
{"compound": "CCOC(=O)C(O)(c1cn(C)c2ccccc12)C(F)(F)F (stereo unspecified)", "assayed-target": "Fructose-1,6-bisphosphatase 1 (Mus musculus)", "IC50, µM": 11.9}
{"compound": "CCOC(=O)C(O)(c1c[nH]c2ccc(C)cc12)C(F)(F)F (stereo unspecified)", "assayed-target": "Fructose-1,6-bisphosphatase 1 (Mus musculus)", "IC50, µM": 36}
{"compound": "CCOC(=O)CC(O)(c1[nH]c(C)cc1C)C(F)(F)F (stereo unspecified)", "assayed-target": "Fructose-1,6-bisphosphatase 1 (Mus musculus)", "IC50, µM": 4.81}

The compound identified as O=S(=O)(c1ccccc1)n1cccc1 registered its IC50 at 76.2

---

Below: a set of entries, each annotated with reported pIC50.
- assayed-target: Fructose-1,6-bisphosphatase 1 (Mus musculus)
- Sequence (Q9QXD6 whole entry): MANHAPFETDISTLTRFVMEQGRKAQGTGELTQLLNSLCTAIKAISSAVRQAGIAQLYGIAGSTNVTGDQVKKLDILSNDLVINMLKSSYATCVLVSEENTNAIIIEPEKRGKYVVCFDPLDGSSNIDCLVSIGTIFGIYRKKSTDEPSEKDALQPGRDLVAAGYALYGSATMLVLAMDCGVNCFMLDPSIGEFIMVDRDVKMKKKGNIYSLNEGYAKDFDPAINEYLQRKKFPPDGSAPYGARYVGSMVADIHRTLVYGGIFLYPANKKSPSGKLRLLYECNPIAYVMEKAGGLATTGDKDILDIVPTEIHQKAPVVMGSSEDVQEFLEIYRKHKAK
Remember, pIC50 is on a log scale: it is -log10 of the molar concentration.

{"molecule": "COc1ccc(S(=O)(=O)n2cccc2)cc1", "measurement": 3.61}
{"molecule": "O=[N+]([O-])c1ccc(S(=O)(=O)n2cccc2)cc1", "measurement": 3.96}
{"molecule": "CCOC(=O)C(O)(c1c[nH]c2ccc(I)cc12)C(F)(F)F (centres undefined)", "measurement": 4.88}
{"molecule": "CCOC(=O)C(O)(c1ccc[nH]1)C(F)(F)F (centres undefined)", "measurement": 4.59}

The molecule identified as Fc1ccc(-c2cc(-c3ccc(F)cc3)n(-c3cccc(C(F)(F)F)c3)n2)cc1 registered its pIC50 at 4.12

---

- assayed-target: Fructose-1,6-bisphosphatase 1 (Mus musculus)
- Sequence (Q9QXD6 whole entry): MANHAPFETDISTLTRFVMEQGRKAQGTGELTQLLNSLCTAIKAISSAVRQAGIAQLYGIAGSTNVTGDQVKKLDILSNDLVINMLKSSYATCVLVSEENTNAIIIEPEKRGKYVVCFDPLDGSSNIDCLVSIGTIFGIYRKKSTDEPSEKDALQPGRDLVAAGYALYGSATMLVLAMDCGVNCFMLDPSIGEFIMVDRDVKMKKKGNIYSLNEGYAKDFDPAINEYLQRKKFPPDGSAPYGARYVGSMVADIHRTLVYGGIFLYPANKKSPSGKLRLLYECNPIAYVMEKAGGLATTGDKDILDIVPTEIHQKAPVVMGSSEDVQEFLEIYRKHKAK
pIC50: −log10 of the molar value.
Below: a set of entries, each annotated with reported pIC50.

In the examples that follow, each entry is paired with its recorded pIC50.
{"smiles": "COc1ccc2[nH]c3c(C)ccc(C)c3c2c1", "measurement-type": "pIC50", "measurement": "< 3.52"}
{"smiles": "Cc1ccccc1S(=O)(=O)n1cccc1", "measurement-type": "pIC50", "measurement": "< 3.60"}
{"smiles": "O=S(=O)(c1ccc2ccccc2c1)n1ccc2ccccc21", "measurement-type": "pIC50", "measurement": "< 3.52"}

Switching to the query record.
The compound identified as O=S(=O)(c1ccc2ccccc2c1)n1c2ccccc2c2ccccc21 registered its pIC50 at < 3.52
